Recorded Plant response rating, Blackgrass for the following compounds
Test system: blackgrass
assay name: Test B pre/postemergence blackgrass
Format: in vivo, Alopecurus myosuroides
condition description: Preemergence, Rate 250 g/ha; scale of 0 to 10 where 0 is no effect and 10 is complete control
readout name: Plant response rating, Blackgrass

compound="Cc1ccccc1-n1c(=O)on(C(=O)N(c2ccc([N+](=O)[O-])cc2)C(C)C)c1=O [Compound 44]" recorded_result=0
compound="Cc1cccc(Cl)c1-n1c(=O)on(C(=O)N(c2ccc(Cl)cc2)C(C)C)c1=O [Compound 54]" recorded_result=0
compound="CCc1cccc(C)c1-n1c(=O)on(C(=O)N(c2ccc(F)cc2)C(C)C)c1=O [Compound 52]" recorded_result=3
compound="CCn1c(=O)on(C(=O)N(c2ccccc2)C(C)C)c1=O [Compound 117]" recorded_result=10
compound="Cc1ccccc1-n1c(=O)on(C(=O)N(c2ccc(C(F)(F)F)cc2)C(C)C)c1=O [Compound 39]" recorded_result=0
compound="C=CCn1c(=O)on(C(=O)N(c2ccc(Cl)cc2)C(C)C)c1=O [Compound 105]" recorded_result=8
compound="CCN(CC)C(=O)n1oc(=O)n(Cc2cccs2)c1=O [Compound 77]" recorded_result=0
compound="Cc1nn(C)c(Cl)c1-n1c(=O)on(C(=O)N(c2ccccc2)C(C)C)c1=O [Compound 121]" recorded_result=7
compound="Cc1c(Cl)cccc1-n1c(=O)on(C(=O)N(c2ccc(F)cc2)C(C)C)c1=O [Compound 21]" recorded_result=0
